# System: A498 renal
# test name: NCI tumour cell line growth inhibition, 48 h
Exercise: state measured TGI for each of the compounds provided.

Exam item: // lookup TGI for COc1ccc(-c2c(CN3CCOCC3)sc3nc4ccccc4n23)cc1
Marked response: 72.4 µM

Exam item: // lookup TGI for O=C1c2cc([N+](=O)[O-])ccc2-c2cccc(F)c21
Marked response: > 100 µM

Exam item: // lookup TGI for COC(=O)c1c2c(c(C)[n+]([O-])c1C)C(=O)C=C(NCc1ccc(OC)cc1)C2=O
Marked response: 6.21 µM

Exam item: // lookup TGI for CCOC(=O)[C@@H]1ON2O[C@H](OC3CCCC3(c3ccccc3)c3ccccc3)C[C@H]3OC(=O)[C@@H]1C32 (some centres not stated)
Marked response: 95.9 µM

Exam item: // lookup TGI for COc1ccc(-c2ccc(/C=N/n3c(COc4ccc(Cl)cc4Cl)nn(CN4CCN(C)CC4)c3=S)o2)c([N+](=O)[O-])c1
Marked response: 5.1 µM

Exam item: // lookup TGI for CCOP(=O)(OCC)c1ccc(=O)[nH]c1-c1cccs1
Marked response: > 100 µM

Exam item: // lookup TGI for CC(C)(C)[Si](C)(C)OCC1CCC(n2cnc3c(N)ncnc32)O1 (configuration not stated)
Marked response: > 100 µM

Exam item: // lookup TGI for C=CCC(C(=O)O)c1ccccc1 (configuration not stated)
Marked response: > 100 µM

Exam item: // lookup TGI for C=CCN1C=CC(=O)[C@H](O[Si](C)(C)C(C)(C)C)[C@@H]1/C=C/c1ccccc1
Marked response: 26.1 µM

Exam item: // lookup TGI for O=C1CCC2CCC1C2 (configuration not stated)
Marked response: > 100 µM

Exam item: // lookup TGI for O=c1[nH]nc(Cc2ccccc2)n1/N=C/c1ccccc1Cl
Marked response: > 100 µM

Exam item: // lookup TGI for CC(C)C1CCC/C=C/C=C/C=C/C=C/C(OC2OC(C)C(O)C(N)C2O)CC2OC(O)(CC(O)CC(O)C(O)CCC(=O)O1)CC(O)C2C(=O)O (configuration not stated)
Marked response: > 52.5 µM

Exam item: // lookup TGI for O=c1c2cccnc2cc(-c2ccccc2)n1CCO
Marked response: > 100 µM

Exam item: // lookup TGI for Cc1cc(-c2nnc(N)nc2-c2ccc(F)cc2)cc(Cl)n1
Marked response: > 100 µM

Exam item: // lookup TGI for Cc1cc(NCCCCCCCCCC[n+]2c(C)cc(N)c3ccccc32)c2ccccc2n1
Marked response: 15.4 µM

Exam item: // lookup TGI for C=C[C@H]1CCC/C=C/[C@@H]2C[C@H](O)C[C@H]2[C@H](O)/C=C/C(=O)O1
Marked response: 0.0528 µM

Exam item: // lookup TGI for c1ccc(Nc2nnc(Cn3ccc4ccccc43)s2)cc1
Marked response: > 100 µM

Exam item: // lookup TGI for NC(=S)N/N=C(\C(=O)Nc1cccc([N+](=O)[O-])c1)c1nc2ccc([N+](=O)[O-])cc2[nH]c1=O
Marked response: > 100 µM

Exam item: // lookup TGI for Cc1cc(I)cc(CN(C)CCN2CCCC2)c1O
Marked response: 67.2 µM

Exam item: // lookup TGI for COc1ccc(/C=C2\CCCCCC2=O)cc1
Marked response: > 100 µM

Exam item: // lookup TGI for COc1c2ccccc2c(OC)c2nc(C)ccc12
Marked response: > 100 µM

Exam item: // lookup TGI for C(=NCc1ccccc1)c1ccccc1-c1ccccc1C=NCc1ccccc1
Marked response: > 10 µM
